Test system: T47D cells
assay_summary: Cell viability (cell kill) assay
Type: cell-based
study_conditions: T47D; Table 19; read-out: IC50
I'd appreciate it if you could supply pIC50 values for the items below.
Answers are plain numbers, as −log10 of the molar value.

Solved cases below.
H1H6975P-SMCC-DM1 (conjugate) VH: EVHLVESGGGLVQPGGSLRLSCAASGFTFSSYEMNWVRQTPGKGLEWISHISSRSVIIYYADSVKGRFTISRDNAKNSLFLQMNSLRAEDTAVYFCAGITIFGIPEYWGQGTLVTVSS VL: EIVLTQSPATLSLSPGERATLSCRASQSVSSYFAWYQQKPGQAPRLLIYDASSRATGIPTRFSGSGSGTDFTLTISSLEPEDFAVYYCQQRSSWPITFGQGTRLEIK ... 8.70
H1H6765P-SMCC-DM1 (conjugate) VH: EVQLVESGGGVVRPGGSLRLSCVGSGFSFDDHGMNWVRQGPGKGLEWVSGFNWNGGSTNYAESVKGRFTISRDNARNSLFLQMNSLRAEDTALYYCVRGRSGWFNDAFDVWGPGTMVTVSS VL: EIVLTQSPGTLSLSPGERATLSCRASQTINSNYLAWYRQKPGQTPRLLIYGTSSRATGIPDRFSGSGSGTDFSLTISRLEPEDFAVFYCQQYAGLPTFGPGTKVDIK ... 9.00
H1H6958N2-mc-VC-PAB-MMAE (conjugate) VH: QVQLVESGGGVVQPGRSLRLSCGASGFTFRNYGMQWVRQGPGKGLEWVTLISFDGNDKYYADSVKGRFTISRDNSKNTLFLQMNSLRTEDTAVYYCARGGDFDYWGQGTLVTVSS VL: DIQMTQSPSSLSASVGDRVTITCRASQDIRKDLGWYQQKPGKAPKRLIYAASSLHSGVPSRFSGSGSGTEFTLTISSLQPEDFATYYCLQHNSYPMYTFGQGTKLEIK ... 9.00
H1H6975P-mc-VC-PAB-MMD (conjugate) VH: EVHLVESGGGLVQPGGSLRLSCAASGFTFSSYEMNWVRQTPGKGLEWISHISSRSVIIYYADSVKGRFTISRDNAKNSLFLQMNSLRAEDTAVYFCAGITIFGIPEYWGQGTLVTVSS VL: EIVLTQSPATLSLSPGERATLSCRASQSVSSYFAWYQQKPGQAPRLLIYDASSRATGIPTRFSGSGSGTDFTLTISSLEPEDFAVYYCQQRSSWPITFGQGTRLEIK ... 8.52

Then this molecule:
Which pIC50 value is on record for H1H6782P-SMCC-DM1 (conjugate) VH: EVQLVESGGGLVQPGRSLRLSCAASGFTFDDYAMHWVRQAPGKGLEWVSGIIWNSGHIGYGDSVKGRFTISRDNAKKSLYLQMNSLRAEDTALYYCARDSGRYQSYFDYWGQGTLVTVSS VL: DIQMTQSPSTLSASVGDRVTITCRASHIISSWLAWYQQKPGKAPKVLIFKASSLESGVPSRFSGSGSGTEFTLTISSLQPDDFATYYCQQYNTYSRTFGQGTKVEIK ?
8.52
